Quick list: MIC per entry.
Test system: Bacteroides fragilis A20926
Test: MIC, serial two-fold dilution method (anaerobic)
Assay type: cell-based
Settings: Bacteroides fragilis A20926; GAM agar medium; inoculum 10^7-10^8; read-out: minimum inhibitory concentration (MIC)
attribute_measured: MIC (µg/mL)

{"compound": "CC1(C)S[C@@H]2[C@H](NC(=O)[C@H](N)c3ccccc3)C(=O)N2[C@H]1C(=O)O [Ampicillin]", "attribute_measured": "MIC", "limit_qualifier": "=", "obs_value": 0.2}
{"compound": "O=C(N[C@H](CO)[C@H](O)c1ccc([N+](=O)[O-])cc1)C(Cl)Cl [Chloramphenicol]", "attribute_measured": "MIC", "limit_qualifier": "=", "obs_value": 3.1}
{"compound": "CCC[C@@H]1C[C@@H](C(=O)N[C@@H]([C@H]2O[C@H](SC)[C@H](O)[C@@H](O)[C@H]2O)[C@H](C)Cl)N(C)C1 [Clindamycin]", "attribute_measured": "MIC", "limit_qualifier": "=", "obs_value": 0.025}
{"compound": "CC[C@H]1OC(=O)[C@H](C)[C@@H](O[C@H]2C[C@@](C)(OC)[C@@H](O)[C@H](C)O2)[C@H](C)[C@@H](O[C@@H]2O[C@H](C)C[C@H](N(C)C)[C@H]2O)[C@](C)(O)C[C@@H](C)C(=O)[C@H](C)[C@@H](O)[C@]1(C)O [Erythromycin]", "attribute_measured": "MIC", "limit_qualifier": "<", "obs_value": 0.05}

###

Test system: Propionibacterium acnes A22650
Experiment: MIC, serial two-fold dilution method (anaerobic)
Assay type: cell-based
Conditions: Cutibacterium acnes; Propionibacterium acnes A22650; GAM agar medium; inoculum 10^7-10^8; read-out: minimum inhibitory concentration (MIC)

{"compound": "CC[C@H]1OC(=O)[C@H](C)[C@@H](O[C@H]2C[C@@](C)(OC)[C@@H](O)[C@H](C)O2)[C@H](C)[C@@H](O[C@@H]2O[C@H](C)C[C@H](N(C)C)[C@H]2O)[C@](C)(O)C[C@@H](C)C(=O)[C@H](C)[C@@H](O)[C@]1(C)O [Erythromycin]", "target_desc": "Propionibacterium acnes A22650", "MIC": "< 0.0063 µg/mL"}
{"compound": "CC1(C)S[C@@H]2[C@H](NC(=O)[C@H](N)c3ccccc3)C(=O)N2[C@H]1C(=O)O [Ampicillin]", "target_desc": "Propionibacterium acnes A22650", "MIC": "0.05 µg/mL"}
{"compound": "O=C(N[C@H](CO)[C@H](O)c1ccc([N+](=O)[O-])cc1)C(Cl)Cl [Chloramphenicol]", "target_desc": "Propionibacterium acnes A22650", "MIC": "0.4 µg/mL"}
{"compound": "CCC[C@@H]1C[C@@H](C(=O)N[C@@H]([C@H]2O[C@H](SC)[C@H](O)[C@@H](O)[C@H]2O)[C@H](C)Cl)N(C)C1 [Clindamycin]", "target_desc": "Propionibacterium acnes A22650", "MIC": "0.1 µg/mL"}

###

Tested on: Clostridium acidiurici A9560
Assay: MIC, serial two-fold dilution method (anaerobic)
Type: cell-based
Conditions: Gottschalkia acidurici; Clostridium acidiurici A9560; GAM agar medium; inoculum 10^7-10^8; read-out: minimum inhibitory concentration (MIC)
attribute_measured: MIC

{"structure_as_smiles": "O=C(N[C@H](CO)[C@H](O)c1ccc([N+](=O)[O-])cc1)C(Cl)Cl", "obs_value": "6.3 µg/mL"}
{"structure_as_smiles": "CC[C@H]1OC(=O)[C@H](C)[C@@H](O[C@H]2C[C@@](C)(OC)[C@@H](O)[C@H](C)O2)[C@H](C)[C@@H](O[C@@H]2O[C@H](C)C[C@H](N(C)C)[C@H]2O)[C@](C)(O)C[C@@H](C)C(=O)[C@H](C)[C@@H](O)[C@]1(C)O", "obs_value": "1.6 µg/mL"}
{"structure_as_smiles": "CC1(C)S[C@@H]2[C@H](NC(=O)[C@H](N)c3ccccc3)C(=O)N2[C@H]1C(=O)O", "obs_value": "0.8 µg/mL"}
{"structure_as_smiles": "CCC[C@@H]1C[C@@H](C(=O)N[C@@H]([C@H]2O[C@H](SC)[C@H](O)[C@@H](O)[C@H]2O)[C@H](C)Cl)N(C)C1", "obs_value": "0.8 µg/mL"}
